- SYSTEM NAME: Mas-related G-protein coupled receptor member X1 (Homo sapiens) (UniProt Q96LB2)
- Sequence (Q96LB2 whole entry, looked up): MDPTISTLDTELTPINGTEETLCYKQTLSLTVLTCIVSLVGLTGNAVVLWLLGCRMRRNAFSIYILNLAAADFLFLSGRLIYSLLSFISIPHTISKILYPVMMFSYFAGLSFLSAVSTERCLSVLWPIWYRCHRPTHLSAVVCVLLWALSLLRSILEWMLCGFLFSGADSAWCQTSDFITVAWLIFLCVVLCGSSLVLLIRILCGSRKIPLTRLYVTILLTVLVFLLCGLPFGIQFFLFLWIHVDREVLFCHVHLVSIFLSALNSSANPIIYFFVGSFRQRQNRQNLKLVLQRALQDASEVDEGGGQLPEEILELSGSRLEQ
- PROTOCOL SUMMARY: blockade of BAM8-22-evoked MrgX1 calcium response – HEK293 cells, Fluo-4 calcium flux, primary screen (AID 588676)
- CONDITION DESCRIPTION: Fluo-4, BAM8-22 antagonism, at 10 µM
In all, about 310,000 compounds went through this assay and about 3,900 (1.3%) were called active.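 Rule for the calls: active = calcium-response B-score plate-corrected more than 3 library SD below zero, starting fluorescence within 5 deviations, no agonist response on first addition; inactive = the rest.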 The full list was thinned out, with actives kept by preference.
Outcomes you can answer with include only these: active, inactive

Q: Kindly provide the recorded test outcome for the following compound: CCCCN(C(=O)CCNC(=O)NC12CC3CC(CC(C3)C1)C2)c1c(N)n(CCCC)c(=O)[nH]c1=O
A: inactive

Q: Now consider CN(C)c1ccc(-n2cccc2/C=C2/SC(=Nc3ccc(F)cc3)NC2=O)cc1 .
A: active

Q: Now consider COCCOC(=O)c1c(C)oc2cc(Br)c(OCC(N)=O)cc12 .
A: inactive

Q: Now consider Cc1ccc(N=C2NC(=O)/C(=C/C=C/c3ccco3)S2)cc1C .
A: inactive

---

- SYSTEM NAME: Mas-related G-protein coupled receptor member X1 (Homo sapiens) (UniProt Q96LB2)
- PROTOCOL SUMMARY: blockade of BAM8-22-evoked MrgX1 calcium response – HEK293 cells, Fluo-4 calcium flux, primary screen (AID 588676)
- CONDITION DESCRIPTION: Fluo-4, BAM8-22 antagonism, at 10 µM
About 3,900 (1.3%) of roughly 310,000 compounds were called active.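 How the source made its calls: active means calcium-response B-score plate-corrected more than 3 library SD below zero, starting fluorescence within 5 deviations, no agonist response on first addition; inactive means the rest.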 The sample holds actives, similar compounds and a random draw of the others, so the mix is not that of the screen.
Outcomes you can answer with include only these: True (active), False (inactive)

Cc1ccc(C)c(S(=O)(=O)N2CCCOC2CNC(=O)C(=O)NC2CCCCC2)c1 (stereo not given) = False
O=C(O)CCCN1C(=O)c2ccccc2Sc2ncccc21 = False
Cc1cccc(C)c1NC1=NC(=S)N(c2ccc(N(C)C)cc2)C1(C)C = False
Cc1ccc(S(=O)(=O)Nc2nc3ccccc3nc2N2CCc3ccccc3C2)cc1 = False
Cc1nn(-c2ccccc2)c(C)c1NC(=O)COC(=O)c1cc(Cl)ccc1O = False

Q: Kindly provide the recorded test outcome for the following compound: Cc1ccc(S(=O)(=O)C(C#N)c2nc3ccccc3nc2N2CCCC2)cc1C (stereo not given)
A: True

Q: Now consider COc1ccc(NC(C(=O)Nc2cccc(C(C)=O)c2)c2ccccc2)cc1 (stereo not given) .
A: False

Q: Now consider CCn1ccnc1CN(C)C(=O)c1cc(COc2ccc(Cl)cc2OC)on1 .
A: False

Q: Now consider CSc1nc2c(c(=O)[nH]1)C(c1cccc(Cl)c1Cl)CC(=O)N2 (stereo not given) .
A: False

Q: Now consider Cc1cc(N2CCN(S(=O)(=O)c3ccc(C)c(C)c3)CC2)c2ccccc2n1 .
A: False

---

- SYSTEM NAME: Mas-related G-protein coupled receptor member X1 (Homo sapiens)
- PROTOCOL SUMMARY: blockade of BAM8-22-evoked MrgX1 calcium response – HEK293 cells, Fluo-4 calcium flux, primary screen (AID 588676)
- CONDITION DESCRIPTION: Fluo-4, BAM8-22 antagonism, at 10 µM
About 3,900 (1.3%) of roughly 310,000 compounds were called active.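 The calls were made as follows: active = calcium-response B-score plate-corrected more than 3 library SD below zero, starting fluorescence within 5 deviations, no agonist response on first addition; inactive = the rest.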 The full list was thinned out, with actives kept by preference.
Outcomes you can answer with include only these: active, inactive

Worked examples, 3 molecules total:
CCS(=O)(=O)c1ccc2oc(SCC(=O)N3c4ccccc4CC3C)nc2c1 (centres undefined) = inactive
O=C1CCC(C(=O)N2CCN(c3ccccc3Cl)CC2)CN1CC1CCCCC1 (centres undefined) = inactive
COc1ccccc1NC(=S)N1CCC(NC(=O)C23CC4CC(CC(C4)C2)C3)CC1 = inactive

Q: Kindly provide the recorded test outcome for the following molecule: CCOCCOCCC(C(=O)O)P(=O)(c1ccccc1)c1ccccc1 (centres undefined)
A: inactive

Q: Now consider Nc1ccc2nc3c(=O)[nH]c(=S)[nH]c3nc2c1 .
A: inactive

Q: Now consider CC(NCc1cccs1)C(=O)Nc1cc(Cl)cc(Cl)c1 (centres undefined) .
A: inactive

Q: Now consider CCS(=O)(=O)c1ccc2c(c1)N(S(=O)(=O)c1ccccc1)CC(C(=O)O)O2 (centres undefined) .
A: active

Q: Now consider O=[N+]([O-])c1ccc(NCCCN2CCOCC2)c(Cl)c1 .
A: inactive

Q: Now consider CNC(=O)c1csc(-c2ccccc2)n1 .
A: inactive

Q: Now consider Fc1ccc(-c2ccc(CNCc3ccccn3)o2)cc1Cl .
A: inactive

Q: Now consider Cc1ccc(Nc2cc(C)nc3c(C)ccc([N+](=O)[O-])c23)cc1 .
A: inactive

Q: Now consider CN(C)C(CNC(=O)Cc1ccc([N+](=O)[O-])cc1)c1ccccc1 (centres undefined) .
A: inactive

Q: Now consider CNC(=O)c1cccc2nc3ccccc3nc12 .
A: inactive

Q: Now consider O=C(c1cc(-c2ccccc2O)on1)N1CCCC1 .
A: inactive

Q: Now consider CNC(=O)c1[nH]cnc1C(=O)N[C@@H](CC(C)C)C(=O)OC(C)(C)C .
A: inactive

Q: Now consider C=CCNC(=O)c1cc(-c2ccccc2O)on1 .
A: active

Q: Now consider O=C(NCCc1csc(-c2ccccc2)n1)c1ccccc1F .
A: inactive

Q: Now consider O=C(CSCc1ccc([N+](=O)[O-])cc1)NCCSCc1ccccc1 .
A: inactive

Q: Now consider O=c1[nH]c(=O)c2nc3ccccc3nc2[nH]1 .
A: active
